The origin of these recorded values is patent US8084457B2.

# target-entity: CDK9/Cyclin T1 (Homo sapiens)
# Sequence (P50750 whole entry): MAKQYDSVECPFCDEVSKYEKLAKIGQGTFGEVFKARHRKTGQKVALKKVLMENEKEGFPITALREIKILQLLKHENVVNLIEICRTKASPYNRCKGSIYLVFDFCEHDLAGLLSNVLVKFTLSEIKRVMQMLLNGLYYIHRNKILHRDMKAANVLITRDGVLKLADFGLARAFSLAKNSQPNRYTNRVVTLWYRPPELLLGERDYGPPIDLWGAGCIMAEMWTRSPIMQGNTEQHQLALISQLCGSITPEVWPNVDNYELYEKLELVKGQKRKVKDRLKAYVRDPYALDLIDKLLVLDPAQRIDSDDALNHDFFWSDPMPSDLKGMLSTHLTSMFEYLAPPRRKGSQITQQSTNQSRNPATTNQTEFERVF
# Sequence (O60563 whole entry partner): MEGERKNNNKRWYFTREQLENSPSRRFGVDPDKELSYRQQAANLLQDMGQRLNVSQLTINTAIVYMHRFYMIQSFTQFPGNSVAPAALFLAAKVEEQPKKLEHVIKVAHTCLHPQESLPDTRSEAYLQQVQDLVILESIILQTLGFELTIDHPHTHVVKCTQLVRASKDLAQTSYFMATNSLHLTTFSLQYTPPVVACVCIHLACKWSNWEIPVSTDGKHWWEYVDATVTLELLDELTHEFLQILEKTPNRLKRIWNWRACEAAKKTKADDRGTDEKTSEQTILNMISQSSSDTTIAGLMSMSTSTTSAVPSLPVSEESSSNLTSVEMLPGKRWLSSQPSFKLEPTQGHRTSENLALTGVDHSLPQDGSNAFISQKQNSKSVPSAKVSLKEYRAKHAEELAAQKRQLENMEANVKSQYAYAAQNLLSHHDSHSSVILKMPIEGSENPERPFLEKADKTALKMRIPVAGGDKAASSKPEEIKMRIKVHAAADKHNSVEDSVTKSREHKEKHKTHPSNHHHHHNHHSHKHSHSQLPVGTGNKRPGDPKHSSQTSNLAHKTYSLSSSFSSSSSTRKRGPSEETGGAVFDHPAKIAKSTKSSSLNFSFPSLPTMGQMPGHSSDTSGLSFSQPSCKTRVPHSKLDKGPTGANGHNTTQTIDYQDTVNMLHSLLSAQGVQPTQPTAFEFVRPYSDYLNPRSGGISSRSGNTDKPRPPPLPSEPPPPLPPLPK
# experimental-details: Kinase assay using CDK9/Cyclin T1
# condition-label: read-out: CDK9 (activity range)
pIC50: −log10 of the molar value.

[
  {
    "molecule": "COc1ccccc1-c1cc(Nc2ccc(NS(=O)(=O)c3ccc(-c4ccccc4)cc3)cc2)ncn1",
    "pIC50": "5.00 to 6.00"
  },
  {
    "molecule": "Cc1ccc(Nc2cc(-c3cccc(N(C)C)c3)ncn2)cc1NS(C)(=O)=O",
    "pIC50": "6.00 to 9.00"
  },
  {
    "molecule": "COc1ccccc1-c1cc(Nc2cccc(S(N)(=O)=O)c2)ncn1",
    "pIC50": "6.00 to 9.00"
  },
  {
    "molecule": "CS(=O)(=O)Nc1cccc(-c2cc(Nc3ccc(C(=O)N[C@@H]4CCCC[C@H]4N)cc3)ncn2)c1 (racemic)",
    "pIC50": "6.00 to 9.00"
  },
  {
    "molecule": "COc1ccccc1-c1cc(Nc2ccc(N)cc2)ncn1",
    "pIC50": "6.00 to 9.00"
  },
  {
    "molecule": "CC(C)Oc1ccccc1-c1cc(Nc2ccc(NC(=O)c3ccc(N)cc3)cc2)ncn1",
    "pIC50": "6.00 to 9.00"
  },
  {
    "molecule": "O=C(Nc1ccc(Nc2cc(-c3ccc(OCc4ccccc4)cc3)ncn2)cc1)[C@@H]1CCCCN1",
    "pIC50": "3.60 to 5.00"
  },
  {
    "molecule": "Nc1ccc(C(=O)Nc2ccc(Nc3cc(Cl)ncn3)cc2)cc1",
    "pIC50": "3.60 to 5.00"
  },
  {
    "molecule": "COc1cccc(-c2cc(Nc3ccc(NS(=O)(=O)c4ccc(C)cc4)cc3)ncn2)c1",
    "pIC50": "3.60 to 5.00"
  },
  {
    "molecule": "CCCS(=O)(=O)Nc1cc(Nc2cc(-c3cccc(N)c3)ncn2)ccc1C",
    "pIC50": "6.00 to 9.00"
  },
  {
    "molecule": "CCCCNS(=O)(=O)c1cccc(Nc2cc(-c3ccccc3OC)ncn2)c1",
    "pIC50": "6.00 to 9.00"
  },
  {
    "molecule": "COc1ccccc1-c1cc(Nc2ccc(C(=O)NC3CCCCC3N)cc2)ncn1 (stereo not shown)",
    "pIC50": "6.00 to 9.00"
  },
  {
    "molecule": "COc1ccccc1-c1cc(Nc2cccc(NC(=O)C(C)(C)C)c2)ncn1",
    "pIC50": "5.00 to 6.00"
  },
  {
    "molecule": "CC(=O)Nc1cccc(-c2cc(Nc3ccc(C)c(NS(C)(=O)=O)c3)ncn2)c1",
    "pIC50": "6.00 to 9.00"
  },
  {
    "molecule": "COc1ccccc1-c1cc(Nc2ccc(NS(=O)(=O)C(C)C)cc2)ncn1",
    "pIC50": "6.00 to 9.00"
  },
  {
    "molecule": "COc1ccccc1-c1cc(Nc2ccc(NC(=O)C3(NC(=O)OC(C)(C)C)CCCC3)cc2)ncn1",
    "pIC50": "6.00 to 9.00"
  },
  {
    "molecule": "COc1ccc(-c2cc(NCCc3ccncc3)ncn2)cc1",
    "pIC50": "3.60 to 5.00"
  },
  {
    "molecule": "COc1ccccc1-c1cc(Nc2ccc(NC(=O)c3ccc(C(C)(C)C)cc3)cc2)ncn1",
    "pIC50": "5.00 to 6.00"
  },
  {
    "molecule": "COc1ccccc1-c1cc(Nc2ccc(NC(=O)c3ccc4ccccc4c3O)cc2)ncn1",
    "pIC50": "6.00 to 9.00"
  },
  {
    "molecule": "COc1ccccc1-c1cc(Nc2ccc(NC(=O)CCN)cc2)ncn1",
    "pIC50": "6.00 to 9.00"
  },
  {
    "molecule": "O=C(Nc1ccc(Nc2cc(-c3cccc(CO)c3)ncn2)cc1)[C@@H]1CCCCN1",
    "pIC50": "5.00 to 6.00"
  },
  {
    "molecule": "Nc1cccc(-c2cc(Nc3ccc(S(N)(=O)=O)cc3)ncn2)c1",
    "pIC50": "5.00 to 6.00"
  },
  {
    "molecule": "Cc1ccc(Nc2cc(-c3cccc(C=O)c3)ncn2)cc1NS(C)(=O)=O",
    "pIC50": "5.00 to 6.00"
  },
  {
    "molecule": "COc1ccc(-c2cc(Nc3ccc(C(=O)N[C@@H]4CCCC[C@H]4N)cc3)ncn2)cc1 (racemic)",
    "pIC50": "6.00 to 9.00"
  },
  {
    "molecule": "CC(C)(C)C(=O)Nc1ccc(Nc2cc(-c3ccccc3C(F)(F)F)ncn2)cc1",
    "pIC50": "3.60 to 5.00"
  },
  {
    "molecule": "COc1ccccc1-c1cc(Nc2ccc(NC(=O)C3CCCCC3)cc2)ncn1",
    "pIC50": "5.00 to 6.00"
  },
  {
    "molecule": "COc1ccccc1-c1cc(Nc2ccc(NC(=O)c3c[nH]c4ccccc34)cc2)ncn1",
    "pIC50": "6.00 to 9.00"
  },
  {
    "molecule": "COc1ccccc1-c1cc(Nc2ccc(NC(=N)N)cc2)ncn1",
    "pIC50": "5.00 to 6.00"
  },
  {
    "molecule": "Nc1ccc(C(=O)Nc2ccc(Nc3cc(-c4ccccc4OCc4ccccc4)ncn3)cc2)cc1",
    "pIC50": "6.00 to 9.00"
  },
  {
    "molecule": "COc1ccccc1-c1cc(Nc2ccc(N)cc2)nc(C)n1",
    "pIC50": "3.60 to 5.00"
  },
  {
    "molecule": "COc1ccccc1-c1cc(Nc2cccc(NC(=O)[C@@H]3CCCCN3)c2)ncn1",
    "pIC50": "6.00 to 9.00"
  },
  {
    "molecule": "NC1CCCCC1NC(=O)c1ccc(Nc2cc(-c3ccc(OCc4ccccc4)cc3)ncn2)cc1 (stereo not shown)",
    "pIC50": "3.60 to 5.00"
  },
  {
    "molecule": "COc1ccccc1-c1cc(Nc2ccc(NC(=O)c3cn(C)cn3)cc2)ncn1",
    "pIC50": "6.00 to 9.00"
  },
  {
    "molecule": "COc1ccccc1-c1cc(Nc2ccc(NC(=O)CC3CCCCN3C(=O)OC(C)(C)C)cc2)ncn1 (stereo not shown)",
    "pIC50": "5.00 to 6.00"
  },
  {
    "molecule": "CC(C)(C)C(=O)Nc1ccc(Nc2cc(-c3ccccc3-c3ccccc3)ncn2)cc1",
    "pIC50": "3.60 to 5.00"
  },
  {
    "molecule": "Nc1ccc(C(=O)Nc2ccc(Nc3cc(NCC4CCCCC4)ncn3)cc2)cc1",
    "pIC50": "5.00 to 6.00"
  },
  {
    "molecule": "COc1ccccc1-c1cc(Nc2ccc(C)c(NS(C)(=O)=O)c2)ncn1",
    "pIC50": "6.00 to 9.00"
  }
]

###

# target-entity: CDK4 (Homo sapiens, UniProt P11802)
# Sequence (P11802 whole entry, species assumed): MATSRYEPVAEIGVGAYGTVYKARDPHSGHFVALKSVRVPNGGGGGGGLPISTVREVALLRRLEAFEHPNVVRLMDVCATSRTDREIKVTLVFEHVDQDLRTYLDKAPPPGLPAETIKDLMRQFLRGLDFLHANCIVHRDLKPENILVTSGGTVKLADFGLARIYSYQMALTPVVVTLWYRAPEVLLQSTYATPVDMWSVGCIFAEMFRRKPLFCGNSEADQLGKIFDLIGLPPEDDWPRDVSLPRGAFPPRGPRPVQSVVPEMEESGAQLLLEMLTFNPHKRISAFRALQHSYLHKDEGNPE
# Sequence (P24385 whole entry partner, species assumed): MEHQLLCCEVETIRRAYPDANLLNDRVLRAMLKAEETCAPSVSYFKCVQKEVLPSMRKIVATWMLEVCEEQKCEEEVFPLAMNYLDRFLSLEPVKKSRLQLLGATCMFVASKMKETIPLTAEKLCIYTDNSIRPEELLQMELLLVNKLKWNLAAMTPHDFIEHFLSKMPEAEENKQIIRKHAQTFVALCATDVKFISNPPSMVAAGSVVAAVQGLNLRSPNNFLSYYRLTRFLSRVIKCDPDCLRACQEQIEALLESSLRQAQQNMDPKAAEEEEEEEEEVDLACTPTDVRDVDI
# experimental-details: CDK4 (activity range), Table 2; no method described
# Type: biochemical

[
  {
    "compound": "CSc1ccncc1-c1cc(Nc2ccc(C(=O)N[C@@H]3CCCC[C@H]3N)cc2)ncn1 [Compound 224]",
    "IC50": "1 to 10 µM"
  },
  {
    "compound": "CCN(CC)CCNC(=O)c1ccc(Nc2cc(-c3ccccc3OC)ncn2)cc1 [Compound 217]",
    "IC50": "1 to 10 µM"
  },
  {
    "compound": "COc1ncccc1-c1cc(Nc2ccc(C(=O)N[C@@H]3CCCC[C@H]3N)cc2)ncn1 [Compound 219]",
    "IC50": "10 to 250 µM"
  },
  {
    "compound": "N[C@@H]1CCCC[C@H]1NC(=O)c1ccc(Nc2cc(-c3ccccc3O)ncn2)cc1 [Compound 218]",
    "IC50": "1 to 10 µM"
  },
  {
    "compound": "CN(C)c1ccccc1-c1cc(Nc2ccc(C(=O)N[C@@H]3CCCC[C@H]3N)cc2)ncn1 [Compound 233]",
    "IC50": "1 to 10 µM"
  },
  {
    "compound": "COc1ccccc1-c1cc(Nc2ccc3c(c2)S(=O)(=O)C=C3)ncn1 [Compound 342]",
    "IC50": "10 to 250 µM"
  },
  {
    "compound": "COc1ccccc1-c1cc(Nc2ccc(N3CCOCC3)cc2)ncn1 [Compound 280]",
    "IC50": "1 to 10 µM"
  },
  {
    "compound": "COc1cccc(F)c1-c1cc(Nc2cccc(S(C)(=O)=O)c2)ncn1 [Compound 346]",
    "IC50": "1 to 10 µM"
  },
  {
    "compound": "O=C(O)Cc1ccc(Nc2cc(-c3ccccc3OCc3ccccc3)ncn2)cc1 [Compound 294]",
    "IC50": "1 to 10 µM"
  },
  {
    "compound": "CNS(=O)(=O)c1ccc(Nc2cc(-c3ccccc3OC)ncn2)cc1 [Compound 341]",
    "IC50": "1 to 10 µM"
  },
  {
    "compound": "COc1ccccc1-c1cc(Nc2ccc3cnn(C)c3c2)ncn1 [Compound 353]",
    "IC50": "1 to 10 µM"
  },
  {
    "compound": "COc1ccccc1-c1cc(Nc2ccc(CCO)cc2)ncn1 [Compound 351]",
    "IC50": "1 to 10 µM"
  },
  {
    "compound": "COc1ccccc1-c1cc(Nc2cccc(S(N)(=O)=O)c2)ncn1 [Compound 331]",
    "IC50": "10 to 250 µM"
  }
]
